# targetOrTestSystem: T1, CX3CR1 (Homo sapiens, UniProt P49238)
# T1 chain: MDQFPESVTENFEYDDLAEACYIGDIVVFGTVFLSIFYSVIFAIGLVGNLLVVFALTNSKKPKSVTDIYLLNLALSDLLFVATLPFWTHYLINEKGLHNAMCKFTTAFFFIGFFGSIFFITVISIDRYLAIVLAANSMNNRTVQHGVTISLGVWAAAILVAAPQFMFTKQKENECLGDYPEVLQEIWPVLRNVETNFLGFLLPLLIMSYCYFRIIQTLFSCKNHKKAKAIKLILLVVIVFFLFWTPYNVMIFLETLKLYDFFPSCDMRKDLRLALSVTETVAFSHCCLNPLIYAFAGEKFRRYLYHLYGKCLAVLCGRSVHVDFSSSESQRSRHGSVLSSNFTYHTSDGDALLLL
# experimentNotes: 125I-CX3CL1 competition radioligand binding (CHO-hCX3CR1 membranes)
quantityMeasured: pKi
Give bare numbers, as −log10 of the molar value.

Return reported pKi; argument: CX3CL1 (fractalkine) chemokine domain (protein) LAGQHHGVTKCNITCSKMTSKIPVALLIHYQQNQASCGKRAIILETRQHRLFCADPKEQWVKDAMQHLDRQAAALTRNGGTF
9.54
